Before we begin, note that these IC50 values for Mast/stem cell growth factor receptor Kit (Homo sapiens, UniProt P10721) originate from several publications.

[[record]]
smiles_text = "CCCS(=O)(=O)Nc1ccc(F)c(C(=O)c2c[nH]c3ncc(-c4ccc(C)nc4)cc23)c1F"
quantity_name = "IC50"
test_value = "≤ 10 µM"


Tested system Mast/stem cell growth factor receptor Kit (Homo sapiens, UniProt P10721); IC50 recorded for "COc1ccc(Nc2ccc(C(=O)c3c[nH]c4ncnc(NCC5CC5)c34)c(F)n2)cn1" was < 1 µM

Tested system Mast/stem cell growth factor receptor Kit (Homo sapiens, UniProt P10721); IC50 recorded for "CCc1ccc(Nc2ccc(C(=O)c3c[nH]c4ncnc(NCC(C)(C)O)c34)c(F)n2)cn1" was < 0.1 µM

Tested system Mast/stem cell growth factor receptor Kit (Homo sapiens, UniProt P10721); IC50 recorded for "CC(=O)Nc1cccc(-c2ccnc3[nH]ccc23)c1" was ≤ 10 µM

Tested system Mast/stem cell growth factor receptor Kit (Homo sapiens, UniProt P10721); IC50 recorded for "CCN1CCC(Nc2ccc3c(c2)/C(=C(\c2cccc(C(F)(F)F)c2)c2ncc[nH]2)C(=O)N3)CC1" was 0.05 to 0.5 µM

Tested system Mast/stem cell growth factor receptor Kit (Homo sapiens, UniProt P10721); IC50 recorded for "COc1ccc(Nc2c[nH]c3ncccc23)cc1" was ≤ 10 µM

Tested system Mast/stem cell growth factor receptor Kit (Homo sapiens, UniProt P10721); IC50 recorded for "CCN1CCC(Nc2ccc3c(c2)/C(=C(/c2nc(C)c[nH]2)c2ccc(C(F)(F)F)cc2F)C(=O)N3)CC1" was < 0.05 µM

Tested system Mast/stem cell growth factor receptor Kit (Homo sapiens, UniProt P10721); IC50 recorded for "O=C(NCc1cccc(-c2cn[nH]c2)c1)Nc1ccc(Cl)c(C(F)(F)F)c1" was 0.05 to 0.5 µM
